# assay.method.text: Thermodynamic solubility of voruciclib HCl by the shake-flask method (HPLC)
# Format: physicochemical
# condition.summary: tert-butyl methyl ether, organic solvent or mixture, thermodynamic from solid, tert-Butyl methyl ether; RT, 24 h, amorphous API, HPLC; read-out: Solubility
Where a name gives a salt, the structure may show the parent alone.
measured.quantity: solubility at 24 h

Record summary for CN1CC[C@@H](c2c(O)cc(O)c3c(=O)cc(-c4ccc(C(F)(F)F)cc4Cl)oc23)[C@@H]1CO [voruciclib HCl] : reported solubility at 24 h = 100 µg/mL

----------
# assay.method.text: Thermodynamic solubility of voruciclib HCl by the shake-flask method (HPLC)
# Type: physicochemical
# condition.summary: acetonitrile, organic solvent or mixture, thermodynamic from solid, Acetonitrile; RT, 24 h, amorphous API, HPLC; read-out: Solubility
Where a name gives a salt, the structure may show the parent alone.
measured.quantity: solubility at 24 h (µg/mL)
Give just the number in µg/mL; leave the unit off.

Record summary for CN1CC[C@@H](c2c(O)cc(O)c3c(=O)cc(-c4ccc(C(F)(F)F)cc4Cl)oc23)[C@@H]1CO [voruciclib HCl] : reported solubility at 24 h = 900

----------
# assay.method.text: Solubility of salts in water and in 0.2 M phosphate buffer pH 6 at 37° C. after 4 hours (HPLC-DAD)
# Type: physicochemical
# condition.summary: 0.2M phosphate buffer pH 6, 37° C., about 5 mg salt in 1 mL
measured.quantity: Form (4 h) of residual solid

Use the examples below as a reference point.
molecule: CN1CCC(c2c(O)cc(O)c3c(=O)cc(-c4ccc(C(F)(F)F)cc4Cl)oc23)C1CO.O=P(O)(O)O (centres unmarked) [Pho1]
Form (4 h) of residual solid: Free
--
molecule: CN1CC[C@@H](c2c(O)cc(O)c3c(=O)cc(-c4ccc(C(F)(F)F)cc4Cl)oc23)[C@@H]1CO.CN1CC[C@@H](c2c(O)cc(O)c3c(=O)cc(-c4ccc(C(F)(F)F)cc4Cl)oc23)[C@@H]1CO.O.O=C(O)C(=O)O [Oxa1]
Form (4 h) of residual solid: Free
--
molecule: CN1CC[C@@H](c2c(O)cc(O)c3c(=O)cc(-c4ccc(C(F)(F)F)cc4Cl)oc23)[C@@H]1CO.O=C(O)CC(=O)O [Mao1]
Form (4 h) of residual solid: Free
--
molecule: CN1CCC(c2c(O)cc(O)c3c(=O)cc(-c4ccc(C(F)(F)F)cc4Cl)oc23)C1CO.CN1CCC(c2c(O)cc(O)c3c(=O)cc(-c4ccc(C(F)(F)F)cc4Cl)oc23)C1CO.O=C(OC(C(=O)O)C(OC(=O)c1ccccc1)C(=O)O)c1ccccc1 (centres unmarked) [DiTr1]
Form (4 h) of residual solid: DiTr1

Kindly review the next molecule as well.
Record summary for CN1CC[C@@H](c2c(O)cc(O)c3c(=O)cc(-c4ccc(C(F)(F)F)cc4Cl)oc23)[C@@H]1CO.CN1CC[C@@H](c2c(O)cc(O)c3c(=O)cc(-c4ccc(C(F)(F)F)cc4Cl)oc23)[C@@H]1CO.O=S(=O)(O)c1cccc2c(S(=O)(=O)O)cccc12 [Nds1a] : reported Form (4 h) of residual solid = Nds1a

----------
# assay.method.text: Quantitative solubility determination of voruciclib malonate after the thermocycling experiments (UPLC)
# Assay type: physicochemical
# condition.summary: anisole, organic solvent or mixture, thermodynamic from solid, Anisole, read-out: Solubility
measured.quantity: solubility

Record summary for CN1CC[C@H](c2c(O)cc(O)c3c(=O)cc(-c4ccc(C(F)(F)F)cc4Cl)oc23)[C@H]1CO (stereo in doubt) [voruciclib malonate] : reported solubility = < 40 µg/mL

----------
# assay.method.text: Thermodynamic solubility of voruciclib HCl by the shake-flask method (HPLC)
# Format: physicochemical
# condition.summary: 2-methyltetrahydrofuran, organic solvent or mixture, thermodynamic from solid, 2-Methyltetrahydrofuran; RT, 24 h, amorphous API, HPLC; read-out: Solubility
Structures can show the parent of a compound that is named as a salt.
measured.quantity: solubility at 24 h

Record summary for CN1CC[C@@H](c2c(O)cc(O)c3c(=O)cc(-c4ccc(C(F)(F)F)cc4Cl)oc23)[C@@H]1CO [voruciclib HCl] : reported solubility at 24 h = 1600 µg/mL

----------
# assay.method.text: Quantitative solubility determination of voruciclib malonate after the thermocycling experiments (UPLC)
# Assay type: physicochemical
# condition.summary: n-heptane, organic solvent or mixture, thermodynamic from solid, n-Heptane, read-out: Solubility
measured.quantity: solubility

Record summary for CN1CC[C@H](c2c(O)cc(O)c3c(=O)cc(-c4ccc(C(F)(F)F)cc4Cl)oc23)[C@H]1CO (stereo in doubt) [voruciclib malonate] : reported solubility = < 60 µg/mL

----------
# assay.method.text: Approximate solubility assessment of the free base by the solvent (aliquot) addition method
# Assay type: physicochemical
# condition.summary: organic solvent or mixture, thermodynamic from solid; Methanol; RT; approximate, solvent addition; read-out: Solubility
# Description: The approximate solubility of the free base was assessed in several organic solvents (Table 17) by the solvent addition method. To about 5 mg of free base, aliquots of solvent were added until complete dissolution was observed or until a concentration […] was reached. Aliquots of 100 μL were used up to 2 mL, followed by aliquots of 1 mL up to 8 mL. […] The solubility assessment was performed according to the aliquot addition method and visually assessed. […]
measured.quantity: solubility

Record summary for `CN1CC[C@@H](c2c(O)cc(O)c3c(=O)cc(-c4ccc(C(F)(F)F)cc4Cl)oc23)[C@@H]1CO` : reported solubility = 17 to 26 mg/mL

----------
# assay.method.text: Quantitative solubility determination of voruciclib malonate after the thermocycling experiments (UPLC)
# Assay type: physicochemical
# condition.summary: acetone/water (90/10), organic solvent or mixture, thermodynamic from solid, Acetone/water (90/10), read-out: Solubility
measured.quantity: solubility (mg/mL)
Give just the number in mg/mL; leave the unit off.

Record summary for CN1CC[C@H](c2c(O)cc(O)c3c(=O)cc(-c4ccc(C(F)(F)F)cc4Cl)oc23)[C@H]1CO (stereo in doubt) [voruciclib malonate] : reported solubility = 245

----------
# assay.method.text: Solubility of salts in water and in 0.2 M phosphate buffer pH 6 at 37° C. after 4 hours (HPLC-DAD)
# Format: physicochemical
# condition.summary: water, 37° C., about 5 mg salt, up to 1 mL
measured.quantity: Form (4 h) of residual solid

compound: CN1CCC(c2c(O)cc(O)c3c(=O)cc(-c4ccc(C(F)(F)F)cc4Cl)oc23)C1CO.CN1CCC(c2c(O)cc(O)c3c(=O)cc(-c4ccc(C(F)(F)F)cc4Cl)oc23)C1CO.O=C(OC(C(=O)O)C(OC(=O)c1ccccc1)C(=O)O)c1ccccc1 (stereo not shown)
measured.quantity: Form (4 h) of residual solid
reported.value: DiTr1
//
compound: CN1CC[C@@H](c2c(O)cc(O)c3c(=O)cc(-c4ccc(C(F)(F)F)cc4Cl)oc23)[C@@H]1CO.O=C(O)CC(=O)O
measured.quantity: Form (4 h) of residual solid
reported.value: Mao1
//
compound: CN1CC[C@@H](c2c(O)cc(O)c3c(=O)cc(-c4ccc(C(F)(F)F)cc4Cl)oc23)[C@@H]1CO.CN1CC[C@@H](c2c(O)cc(O)c3c(=O)cc(-c4ccc(C(F)(F)F)cc4Cl)oc23)[C@@H]1CO.O.O=C(O)C(=O)O
measured.quantity: Form (4 h) of residual solid
reported.value: Oxa1
//
compound: CN1CC[C@@H](c2c(O)cc(O)c3c(=O)cc(-c4ccc(C(F)(F)F)cc4Cl)oc23)[C@@H]1CO.CN1CC[C@@H](c2c(O)cc(O)c3c(=O)cc(-c4ccc(C(F)(F)F)cc4Cl)oc23)[C@@H]1CO.O=S(=O)(O)c1cccc2c(S(=O)(=O)O)cccc12
measured.quantity: Form (4 h) of residual solid
reported.value: Nds1a

----------
# assay.method.text: Quantitative solubility determination of voruciclib malonate after the thermocycling experiments (UPLC)
# Format: physicochemical
# condition.summary: ethyl acetate, organic solvent or mixture, thermodynamic from solid, Ethyl acetate, read-out: Solubility
# Procedure: Moreover, after the thermocycling experiments, an aliquot of the mother liquor was taken and analyzed by UPLC to determine the API solubility. After that, the solutions were evaporated under vacuum (5 mbar) and the dry solids were analyzed by HT-XRPD. […] After the temperature profile, an aliquot of mother liquor was taken, filtered and analyzed by UPLC to determine the API solubility. […] The concentration of solute was determined by UPLC analysis. […]
measured.quantity: solubility (µg/mL)
Give just the number in µg/mL; leave the unit off.

Record summary for CN1CC[C@H](c2c(O)cc(O)c3c(=O)cc(-c4ccc(C(F)(F)F)cc4Cl)oc23)[C@H]1CO (stereo in doubt) [voruciclib malonate] : reported solubility = 300

----------
solubility values for the compounds below.
# assay.method.text: Solubility of salts in water and in 0.2 M phosphate buffer pH 6 at 37° C. after 4 hours (HPLC-DAD)
# Format: physicochemical
# condition.summary: water, 37° C., 4 hours, about 1 mg salt in 1 mL
Give just the number in µg/mL; leave the unit off.

compound: CN1CCC(c2c(O)cc(O)c3c(=O)cc(-c4ccc(C(F)(F)F)cc4Cl)oc23)C1CO.CN1CCC(c2c(O)cc(O)c3c(=O)cc(-c4ccc(C(F)(F)F)cc4Cl)oc23)C1CO.O=C(OC(C(=O)O)C(OC(=O)c1ccccc1)C(=O)O)c1ccccc1 (centres unmarked)
measured.quantity: solubility
reported.value: 40

Kindly review the next compound as well.
Record summary for `CN1CC[C@@H](c2c(O)cc(O)c3c(=O)cc(-c4ccc(C(F)(F)F)cc4Cl)oc23)[C@@H]1CO.CN1CC[C@@H](c2c(O)cc(O)c3c(=O)cc(-c4ccc(C(F)(F)F)cc4Cl)oc23)[C@@H]1CO.O=S(=O)(O)c1cccc2c(S(=O)(=O)O)cccc12` : reported solubility = 30

The reported measurements were obtained from patent US12421216B2.
